Entry source: the EternaBench riboswitch data

What apparent Kd was measured for each of the following?
System: MS2 coat protein
Assay: apparent Kd, MS2 coat protein; higher = weaker binding; RNA-MaP array; FMN 200 µM where present
Conditions: designed as: OFF switch for flavin mononucleotide; no ligand
The number alone won't do; follow it with the unit.

Example cases with answers are listed next.
Prompt: Need apparent Kd of `AAAAUCGAAGGAUAUACAUAUCCUUUAGCGGCAAUGCCGCGACAUGAGGAUCACCCAUGUAGAAGGUCGUAAAA` , thanks.
Completion: 27.6 nM

Prompt: Find the recorded apparent Kd belonging to `AGAAACUACGAGAAGGACAUAUGACCAAGAACAAACAUGAGGAUCACCCAUGUAGGAUAUCGUAGUUUCAGGAUCGUGAGAUCA` and report it.
Completion: 6.29 nM

Prompt: Would you kindly share the measured apparent Kd for `GUCAGCUCGUGAGGAUAUACAACAGUGCUUCGGCAGUGUAUUAAGAUCACAUGAGGAUCACCCAUGUAGAAGGCACGAGCUGAU` ?
Completion: 13.1 nM

Query sequence follows.
Prompt: apparent Kd for `AUCCAGCGAGGAUAUACUUUGAUUUUUUCGUUUUGUCUCGAACAUGAGGAUCACCCAUGUAGAAGGUGCUUCAC` ?
Completion: 67.1 nM

---

Test system: MS2 coat protein
Experiment: apparent Kd, MS2 coat protein; higher = weaker binding; RNA-MaP array; FMN 200 µM where present
Details: ligand present: flavin mononucleotide; designed as: OFF switch for flavin mononucleotide
Measured metric: apparent Kd (nM)
Give bare numbers, in nM.

Return reported apparent Kd values for all items listed beneath this line.
1. GUCAGCUCGUGAGGAUAUACAUGAUAGAUCGAUUAAUUAAUUAAUUUAACAUGAGGAUCACCCAUGUAGAAGGUACGAGCUGAU
2. GCCUUAUCGGUCAGGAUAUACACCCGUCACUUCUUGUAGAAGGGACAUGAGGAUCACCCAUGUACAUUACAUUG
3. UAUAUAUAGGCAGGAUAUACAUGAAUAUAUAUAAUAUAAUAUGAUGUAACAUGAGGAUCACCCAUGUAGAAGGGCCAAUAUAUA
4. GAUAGAGAGCAGGAUAUCUUGGGUAAGUAUCGUAGAGAAGGGCUCACAUGAGGAUCACCCAUGUGGUCCAAGAU

Completion:
1. 45.2
2. 177
3. 64.9
4. 32.6

Field: apparent Kd. Fill in for each record below.
1. AUCUACCUAGGAUAUACAUGAGGAUCACCCAUGUACAGUUUCAACUAGGGAAACACACGUAGAAGGAGGUAGAU
2. GGUUUAGGCGAAGGAUAUCCGUCGCGAGAUACUGGAGAAGGUCGCCUUAAUACAUGAGGAUCACCCAUGUGGCGGGUGAACCAC
3. GUACGGAAGGAGAAGGGCUAGGAGGUCCAGUUUAUGUGUGUUGCAACAUGAGGAUCACCCAUGUAGCAGGAUAUCCUUUGUACA
4. UGAUAGGACAGAGGAUAUACCGAUAGGAUCUACUAUCGAACAAUCCUCACAUGAGGAUCACCCAUGUAGAAGGCUGUCCUAUCU
5. GUAAUUAUAUAGGAUAUCGAACUUAUUAUUUAACGAGAAGGAUGAACAUGAGGAUCACCCAUGUGGUAUCAUGG
6. UGCAUGCUAGGAUAUACGGGACAUUAGGGUUCGUCGUAUGGACAUGAGGAUCACCCAUGUAGAAGGAGCGUGCU
7. UCGCCUUAGUAAGGAUAUCACAUGAGGAUCACCCAUGUGGGCGUGACACGGUGAGAAGGUACGCGGCGAAGGUGCCAAGGCAUC
8. CCAGGCUUCGAGAAGGACAUGAGGAUCACCCAUGUGCGUGUGAAGCAGCCGUGAGGCUGCAUCAUGUAGGAUAUCGGAGUCUGG

Completion:
1. 32.6
2. 47.6
3. 177
4. 284
5. 190
6. 44.5
7. 44
8. 499

Fill in apparent Kd for each of the 3 sequences listed.
1. GGAAAUCAUGUAGGAUAUGCAUGGCGAAGCUACGCAGAAGGACAUGAGGAUCACCCAUGUUCUAGCGUCUGAGUUCAGAUGCAA
2. GGGCCCGGUGUGAGGAUAUCGGGUUUGAAAGGGCCCGAGAAGGCACAUGAGGAUCACCCAUGUAAGCCGGGCCC
3. GCGGCUAGUGCAGGAUAUCGGCGCGUGUAGUGCCGAGAAGGGCACAUGAGGAUCACCCAUGUGAUCAAUCACUGCUAAGGCCGC

Completion:
1: 56.3; 2: 14.4; 3: 5.4
